target: SGK3 (human) (UniProt Q96BR1); assay: radiometric filter-binding kinase assay, Kinase HotSpot; details: compound 0.5 µM; ATP 10 µM
Sequence (Q96BR1 whole entry, looked up): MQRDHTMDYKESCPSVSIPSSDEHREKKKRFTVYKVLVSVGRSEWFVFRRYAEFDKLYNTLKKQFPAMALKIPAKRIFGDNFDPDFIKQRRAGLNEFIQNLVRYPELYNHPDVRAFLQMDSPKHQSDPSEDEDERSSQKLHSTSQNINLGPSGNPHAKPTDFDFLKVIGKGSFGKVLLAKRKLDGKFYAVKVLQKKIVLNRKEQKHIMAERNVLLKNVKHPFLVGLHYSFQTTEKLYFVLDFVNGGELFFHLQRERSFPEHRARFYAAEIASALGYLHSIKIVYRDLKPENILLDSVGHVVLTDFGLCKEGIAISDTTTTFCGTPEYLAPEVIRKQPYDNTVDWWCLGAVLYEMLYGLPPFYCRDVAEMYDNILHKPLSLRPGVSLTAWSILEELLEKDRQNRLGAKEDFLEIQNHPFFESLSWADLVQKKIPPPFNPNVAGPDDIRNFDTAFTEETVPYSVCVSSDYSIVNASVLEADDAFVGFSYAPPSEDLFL
Measured residual activity of individual entries
Don't forget the unit after the number, please.

Some solved cases for reference:
{"columns": ["compound", "residual activity"],
 "data": [
  ["O=C1Nc2cc(Br)ccc2/C1=C1/Nc2ccccc2/C1=N\\O", "97.2%"],
  ["Nc1nc(Nc2ccc(S(N)(=O)=O)cc2)nn1C(=O)c1c(F)cccc1F", "114%"],
  ["CCCNC(=O)Nc1ccc(Oc2ncnc3cc(OC)c(OC)cc23)cc1Cl", "95.5%"],
  ["O=C1Nc2ccccc2/C1=C\\c1c(Cl)[nH]c2ccccc12", "102%"],
  ["O=C(NC(NC(=S)Nc1ccc(F)c([N+](=O)[O-])c1)C(Cl)(Cl)Cl)C(c1ccccc1)c1ccccc1 (stereo unspecified)", "85.8%"],
  ["O=c1cc(-c2cccc3c2Sc2ccccc2S3)oc(N2CCOCC2)c1", "98.6%"],
  ["Oc1ccc(-c2nc(-c3ccc(F)cc3)c(-c3ccncc3)[nH]2)cc1", "98.4%"],
  ["O=C(Nc1ccc(Cl)cc1)c1ccccc1NCc1ccncc1", "92.5%"]
]}

For this compound ( `COc1ccc(-c2cnc3c(-c4ccsc4)cnn3c2)cc1` ), measured residual activity is 99.6%

// recorded residual activity for `CC(C)(C)c1nc2c3ccc(F)cc3c3c(=O)[nH]ccc3c2[nH]1` : 96.6%

get_value(item= `Cc1ccc(NC(=O)c2ccc(CN3CCN(C)CC3)cc2)cc1Nc1nc(-c2cccnc2)cs1` , readout=residual activity) returns 95.6%

Notebook: `CC(C)[C@H](CO)Nc1nc(Nc2cccc(Cl)c2)c2ncn(C(C)C)c2n1` , residual activity read as 97.6%

For reference, reported residual activity for `Cc1cc2ncc(-c3ccccc3)nc2cc1C` stands at 101%

Value of measured residual activity for the entry `NC(=O)c1ccc(N(C(N)=O)c2c(F)cccc2F)nc1-c1ccc(F)cc1F` : 99.9%

CSc1nc(-c2ccc(F)cc2)c(-c2ccnc(NC(C)c3ccccc3)c2)[nH]1 (stereo unspecified) yielded residual activity of 103%

`COc1cc2nccc(Oc3ccc(NC(=S)NC(=O)c4ccccc4C)cc3)c2cc1OC` has a reported residual activity of 98.3%
